system: wild-type ZIKV (Ugandan MR766 strain) in Vero cells; assay: ZIKV cytopathic effect (CPE) inhibition qHTS assay, CellTiter-Glo readout; type: cell-based, Zika virus
Can you tell me Efficacy for the items I'm about to list?
Give bare numbers.

As a guide, the following entries are already answered.
C/C=C(/C)C(=O)O[C@H]1C=C(CO)C(=O)[C@H](OC(=O)/C(C)=C/CO)[C@H]1C(C)C :: -32.45
CN1CC2CN(c3ccc4oc5ccccc5c(=O)c4c3)CC2C1 (stereo not shown) :: -29.929
O=C(O)c1ccc2c(c1)nc(Nc1cccc(Cl)c1)c1ccncc12 :: -41.903

Request: Tell me its Efficacy given COC(=O)C1=C(C)NC(C)=C(C(=O)OC)C1c1cccc(NC(=O)NCCCN2CCC(c3cccc(OC)c3)CC2)c1 as the entry.
Result: -27.731
